Provenance of the data: patent US20200231684A1

target-under-test: T1, recombinant human IL-36R (ECD) (human, UniProt Q9HB29 20-332)
T1 construct: range 20-332; also called IL-1RL2; IL-1Rrp2
T1 sequence (looked up): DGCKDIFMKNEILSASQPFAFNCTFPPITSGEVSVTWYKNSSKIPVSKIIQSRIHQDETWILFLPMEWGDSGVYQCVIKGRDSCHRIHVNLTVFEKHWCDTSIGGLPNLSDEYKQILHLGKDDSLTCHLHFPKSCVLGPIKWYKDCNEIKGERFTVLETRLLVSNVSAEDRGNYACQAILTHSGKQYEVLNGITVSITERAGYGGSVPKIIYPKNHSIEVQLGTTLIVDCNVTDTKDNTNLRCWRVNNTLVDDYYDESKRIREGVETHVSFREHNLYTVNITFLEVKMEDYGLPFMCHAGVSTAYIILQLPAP
assay-explanation: SPR (ProteOn), single IL-36R surface coat concentration
metric: Kd

binder="antibody 172C8 (antibody, V domains shown, Mouse monoclonal from hybridoma; also called 172C8B12) VH: EVQLQQSGPELVKPGASVKLSCKASGYTFTDNYMNWVRQSHGKSLEWIGRVNPSNGDTKYNQNFKGKATLTVDKSLSTAYMQLNGLTSEDSAVYYCGRTKNFYSSYSYDDAMDYWGQGTSVTVSS VL: DIQMTQSPASQSASLGESVTFTCLASQTIGTWLAWYQQRPGKSPQLLIYAATSLADGVPSRFSGSGSGTQFSFNIRSLQAEDFASYYCQQVYTTPLTFGGGTKLEIK" metric=Kd measured="< 0.1 nM"
binder="antibody 73C5 (antibody, V domains shown, Mouse monoclonal from hybridoma; also called 73C5C10; Mouse 73C5) VH: QVQLKESGPGLVAPSQSLSITCTVSGFSLTNYAVHWVRQFPGKGLEWLGVIWSDGSTDFNAPFKSRLSINKDNSKSQVFFKMNSLQIDDTAIYYCARKGGYSGSWFAYWGQGTLVTVSA VL: DIVMTQSQKFLSTSVGVRVSVTCKASQDVGTNVLWYQQKIGQSPKPLIYSASYRHSGVPDRFTGSGSGTDFTLIISNVQSEDLAEYFCQQYSRYPLTFGPGTKLELK" metric=Kd measured="< 0.1 nM"
binder="antibody 81B4 (antibody, V domains shown, Mouse monoclonal from hybridoma; also called 81B4E11; Mouse 81B4) VH: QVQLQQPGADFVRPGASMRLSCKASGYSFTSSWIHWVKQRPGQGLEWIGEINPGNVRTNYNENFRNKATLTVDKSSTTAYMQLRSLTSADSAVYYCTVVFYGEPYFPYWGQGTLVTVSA VL: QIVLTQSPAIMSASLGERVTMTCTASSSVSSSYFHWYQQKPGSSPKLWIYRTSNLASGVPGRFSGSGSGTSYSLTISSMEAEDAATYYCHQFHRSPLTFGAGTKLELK" metric=Kd measured="< 0.1 nM"
